tested on: Inhibin beta A chain (activin A); assay: INHBA (activin A) binders on microarrays, primary screen, biochemical, small-molecule microarray, 635 nm fluorescence scan (AID 1107); settings: small-molecule microarray binding, higher = more signal;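 also: mouse activin A protein probed at 4.33 µg/mL on printed slides; score merges bound-protein fluorescence near 667 nm with spot signal-to-noise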
ENDPOINT: composite z-score
Number only, no unit.

Challenge: Query: composite z-score; subject: Cc1ccccc1C(O)C1C=CC2C(=O)N(c3ccccc3)C(=O)C2N1Nc1ccc([N+](=O)[O-])cc1 (stereo not given)
Response given: 0.816

Challenge: Here is the next compound: `COc1ccc(C#Cc2ccc3c(c2)[C@]2(C(=O)N3)[C@H](c3ccc(OCCO)cc3)N3[C@H](c4ccccc4)[C@H](c4ccccc4)OC(=O)[C@H]3[C@@H]2C(=O)N2CCc3cc(OC)c(OC)cc3C2)cc1`
Response given: -0.258

Challenge: Moving on to the next compound: `CC(C)CNC(=O)[C@@]1(c2ccc([N+](=O)[O-])cc2)CC(=O)N(C2CCCCC2)[C@@H]1c1ccc(CO)cc1`
Response given: 0.517

Challenge: Would you kindly repeat that for CC(C)C[C@@H]1NC(=O)CNC(=O)[C@@]23C(=O)N[C@@H](Cc4ccccc4)C2[C@H](C)[C@@]2(C)O[C@H]2C3/C=C/C/C=C\CNC1=O (stereo not given in full) ?
Response given: 1.25

Challenge: // repeat for CC1CC/C=C\[C@H]2OC34C=CCN(C(C)(C)C)C(=O)[C@H]3N(C(CO)C(C)C)C(=O)[C@@H]4C2C(=O)O1 (stereo not given in full) and report
Response given: 0.524

Challenge: For `C=C[C@@H](OC)[C@H](OC(=O)Nc1ccc(SC)cc1)c1ccc(OCCO)cc1` then?
Response given: 0.0469

Challenge: Would you mind doing `O=C1N[C@@H](Cc2ccccc2)C(=O)N2[C@@H]1C[C@@H](C(=O)O)[C@H]2c1ccc(O)cc1` as well?
Response given: 0.853

Challenge: Repeat with COc1cc(NN2C(C(O)c3ccccc3)C=CC3C(=O)N(C)C(=O)C32)cc(OC)c1OC (stereo not given)
Response given: 0.784

Challenge: Try this compound next: `COCC(=C=CC[C@@H](O)c1cccc(OCCO)c1)CCO`
Response given: 0.598

Challenge: Could you do the same for CC1(C)C(=O)C(c2ccccc2)=C2CN3C(=O)N(CCc4ccccc4)C(=O)C3(Cc3ccc(F)cc3)C=C21 (stereo not given) , please?
Response given: 0.958

Challenge: // query: `O=C1[C@@H]2[C@@H](CC(COc3ccccc3)=C3[C@@H](CCc4ccccc4)OB(O)C[C@@H]32)C(=O)N1Cc1ccccc1`
Response given: 0.343

Challenge: Would you kindly repeat that for CC(=O)n1cc(C(O)C2C=CC3C(=O)N(c4ccccc4)C(=O)C3N2Nc2ccc(C(C)C)cc2)c2ccccc21 (stereo not given) ?
Response given: 1.02

Challenge: Further, for `CO[C@H]1O[C@H](CO)[C@@H](OC(=O)CCc2ccccc2)[C@H](OC(=O)c2cc3ccccc3[nH]2)[C@H]1OC(=O)c1cc2ccccc2[nH]1` ?
Response given: -0.108

Challenge: Continue with `C[C@]1(C(=O)NCC(F)(F)F)c2ccccc2C(=O)N(Cc2ccccc2)[C@H]1c1ccc(CO)cc1`
Response given: -0.264

Challenge: Follow-up entry: `O=C(NCCN1CCOCC1)[C@@H]1c2ccccc2C(=O)N(Cc2ccccc2)[C@H]1c1ccc(CO)cc1`
Response given: 0.269

Each recorded value in this set is attributed to PubChem BioAssay.
